Origin of the recorded values: the Kinase Knowledgebase extract (Sharma et al. 2016)

# IC50 listing for each entry below
TEST TARGET: UniProt:Q16539
Sequence (Q16539 whole entry, looked up): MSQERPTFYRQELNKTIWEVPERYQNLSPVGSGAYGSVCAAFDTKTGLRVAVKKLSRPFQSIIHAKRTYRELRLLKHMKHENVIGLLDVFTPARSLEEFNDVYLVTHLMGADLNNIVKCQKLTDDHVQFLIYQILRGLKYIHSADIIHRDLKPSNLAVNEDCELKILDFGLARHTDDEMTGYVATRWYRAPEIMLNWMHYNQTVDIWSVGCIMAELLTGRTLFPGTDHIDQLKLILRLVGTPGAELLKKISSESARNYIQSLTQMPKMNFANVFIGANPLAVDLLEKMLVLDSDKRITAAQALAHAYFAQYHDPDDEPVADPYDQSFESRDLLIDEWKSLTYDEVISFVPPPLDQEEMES
ASSAY PROCEDURE: Inhibition of MAPK14 by Human Whole Blood Assay
CONDITION SUMMARY: blood cells

O=C(c1ccc2c(c1)CCO2)N(CC1CCNCC1)c1ccnc(NC2CCC[C@@H]2O)n1 (stereo partly specified) | < 1000 nM

Exercise: Request the reported IC50 associated with `COCCN(C(=O)c1cccc(C)c1C)c1ccnc(N[C@@H](C)c2ccccc2)n1`
Key: < 1000 nM

Exercise: Request the reported IC50 associated with `C[C@H](Nc1nccc(N(Cc2cccnc2)C(=O)c2ccc3ccccc3c2)n1)c1ccccc1`
Key: ≤ 1000 nM

Exercise: Request the reported IC50 associated with `C[C@H](Nc1nccc(N(CC2CCNCC2)C(=O)c2sc3ccccc3c2Cl)n1)c1ccccc1`
Key: < 1000 nM

Exercise: Request the reported IC50 associated with `C[C@H](Nc1cc(N(Cc2ccc(F)cc2)C(=O)c2cccs2)ccn1)c1ccccc1`
Key: ≤ 1000 nM

Exercise: Request the reported IC50 associated with `CCN(C(=O)c1cccc2c1OCC2)c1ccnc(N[C@@H](C)c2ccccc2)n1`
Key: < 1000 nM
